- assay_details: Caco-2 permeability assay
- Type: in vitro ADME, human
- experimental_parameters: human, Caco-2 monolayer, basolateral to apical, donor 10 μM, 37° C., pH 7.4
Where a name gives a salt, the structure may show the parent alone.
property_measured: Papp B→A at 90 min, 10 μM (×10⁻⁶ cm/s)

Example cases with answers are listed next.
compound	recorded_value
Cc1cc(C[C@@H](NC(=O)N2CCC(c3cc4ccccc4n(COC(=O)C(C)(C)C)c3=O)CC2)C(=O)N2CCN(C3CCN(C)CC3)CC2)cc2cn(COC(=O)C(C)(C)C)nc12 [Example 4, trifluoroacetate]	2.9
Cc1cc2cc3cn(nc13)COC(=O)C(C)(C)CCCCC(C)(C)C(=O)OCn1c(=O)c(cc3ccccc31)C1CCN(CC1)C(=O)N[C@@H](C(=O)N1CCN(C3CCN(C)CC3)CC1)C2 [Example 125]	13.9

P = Cc1cc2cc3cn(nc13)COC(=O)C1(C/C=C\CC3(CC3)C(=O)OCn3c(=O)c(cc4ccccc43)C3CCN(CC3)C(=O)N[C@@H](C(=O)N3CCN(C4CCN(C)CC4)CC3)C2)CC1 [Example 13]
Q = Cc1cc2cc3cn(nc13)COC(=O)C(C)(C)C/C=C\CC(C)(C)C(=O)OCn1c(=O)c(cc3ccccc31)C1CCN(CC1)C(=O)N[C@@H](C(=O)N1CCN(C3CCN(C)CC3)CC1)C2 [Example 10]
R = CCCCCCN(C)C(=O)OCn1cc2cc(C[C@@H](NC(=O)N3CCC(c4cc5ccccc5n(COC(=O)N(C)CCCCCC)c4=O)CC3)C(=O)N3CCN(C4CCN(C)CC4)CC3)cc(C)c2n1 [Example 93]
QUERY: Sort the compounds on Papp B→A at 90 min, 10 μM; start with the lowest figure. Form entry: ranked labels (order as requested).
RESULT: R, P, Q
(R: 10.7 ×10⁻⁶ cm/s, P: 20 ×10⁻⁶ cm/s, Q: 28.9 ×10⁻⁶ cm/s)
